Just for reference, paper PMC11532403 is where these values come from.

- experiment notes: Phase 1 trial: plasma pharmacokinetics
- Assay type: in vivo
- condition label: human, 80 mg, Cycle 1 Day 1, 80 mg BID (n = 3), read-out: AUCINF_obs mean
property: AUC(0-inf) (ng·h/mL)
Only the number, expressed in ng·h/mL, is required.

Exam item: // AUC(0-inf) lookup, key: `COc1ccc(CN2C3CC2CN(c2ccc(-c4cc(N5CC(C)(O)C5)cn5ncc(C#N)c45)cn2)C3)cn1`
Marked response: 7220

====

- experiment notes: Phase 1 trial: plasma pharmacokinetics
- Assay type: in vivo
- condition label: human, 40 mg, Cycle 1 Day 1, 40 mg BID (n = 3), read-out: AUCINF_obs mean
- From the text: Serial plasma samples were also collected in each patient after the first dose and during multiple-dose administration on Cycle 1 Day 28.
property: AUC(0-inf) (ng·h/mL)
Only the number, expressed in ng·h/mL, is required.

Exam item: // AUC(0-inf) lookup, key: `COc1ccc(CN2C3CC2CN(c2ccc(-c4cc(N5CC(C)(O)C5)cn5ncc(C#N)c45)cn2)C3)cn1`
Marked response: 3760

====

- experiment notes: Phase 1 trial: plasma pharmacokinetics
- Type: in vivo
- condition label: human, 20 mg, Cycle 1 Day 1, 20 mg QD (n = 1), read-out: MRTINF_obs mean
property: MRT inf (h)
Only the number, expressed in h, is required.

Exam item: // MRT inf lookup, key: COc1ccc(CN2C3CC2CN(c2ccc(-c4cc(N5CC(C)(O)C5)cn5ncc(C#N)c45)cn2)C3)cn1 [SY-5007]
Marked response: 7.7

====

- experiment notes: Phase 1 trial: plasma pharmacokinetics
- Type: in vivo
- condition label: human, 200 mg, Cycle 1 Day 28, 200 mg BID (n = 5), read-out: AUC0–12 h mean
property: AUC(0-t) (ng·h/mL)
Only the number, expressed in ng·h/mL, is required.

Exam item: // AUC(0-t) lookup, key: COc1ccc(CN2C3CC2CN(c2ccc(-c4cc(N5CC(C)(O)C5)cn5ncc(C#N)c45)cn2)C3)cn1 [SY-5007]
Marked response: 41100

====

- experiment notes: Phase 1 trial: plasma pharmacokinetics
- Type: in vivo
- condition label: human, 160 mg, Cycle 1 Day 1, 160 mg BID (n = 23), read-out: T1/2 mean (converted)
property: half-life

Exam item: // half-life lookup, key: COc1ccc(CN2C3CC2CN(c2ccc(-c4cc(N5CC(C)(O)C5)cn5ncc(C#N)c45)cn2)C3)cn1 [SY-5007]
Marked response: 10.8 h

====

- experiment notes: Phase 1 trial: plasma pharmacokinetics
- Format: in vivo
- condition label: human, 120 mg, Cycle 1 Day 1, 120 mg BID (n = 3), read-out: Cmax mean
property: Cmax (ng/mL)
Only the number, expressed in ng/mL, is required.

Exam item: // Cmax lookup, key: COc1ccc(CN2C3CC2CN(c2ccc(-c4cc(N5CC(C)(O)C5)cn5ncc(C#N)c45)cn2)C3)cn1 [SY-5007]
Marked response: 2470

====

- experiment notes: Phase 1 trial: plasma pharmacokinetics
- Type: in vivo
- condition label: human, 160 mg, Cycle 1 Day 28, 160 mg BID (n = 15), read-out: AUCINF_obs mean
property: AUC(0-inf) (ng·h/mL)
Only the number, expressed in ng·h/mL, is required.

Exam item: // AUC(0-inf) lookup, key: `COc1ccc(CN2C3CC2CN(c2ccc(-c4cc(N5CC(C)(O)C5)cn5ncc(C#N)c45)cn2)C3)cn1`
Marked response: 67200

====

- experiment notes: Pharmacokinetics in rats
- Format: in vivo, SD rats
- condition label: both sexes, SD, rat, plasma, iv; 1 mg/kg i.v.; read-out: Vss
property: Vd (L/kg)
Only the number, expressed in L/kg, is required.

Exam item: // Vd lookup, key: `COc1ccc(CN2C3CC2CN(c2ccc(-c4cc(N5CC(C)(O)C5)cn5ncc(C#N)c45)cn2)C3)cn1`
Marked response: 0.697

====

- experiment notes: Pharmacokinetics in beagles
- Type: in vivo
- condition label: both sexes, beagle, dog, plasma, po, 2.5 mg/kg
property: bioavailability (%)
Only the number, expressed in %, is required.

Exam item: // bioavailability lookup, key: `COc1ccc(CN2C3CC2CN(c2ccc(-c4cc(N5CC(C)(O)C5)cn5ncc(C#N)c45)cn2)C3)cn1`
Marked response: 56.6

====

- experiment notes: Phase 1 trial: plasma pharmacokinetics
- Format: in vivo
- condition label: human, 160 mg, Cycle 1 Day 1, 160 mg BID (n = 23), read-out: Tmax mean
property: Tmax (h)
Only the number, expressed in h, is required.

Exam item: // Tmax lookup, key: COc1ccc(CN2C3CC2CN(c2ccc(-c4cc(N5CC(C)(O)C5)cn5ncc(C#N)c45)cn2)C3)cn1 [SY-5007]
Marked response: 1

====

- experiment notes: Pharmacokinetics in rats
- Format: in vivo, SD rats
- condition label: both sexes, SD, rat, plasma, po; gavage 20 mg/kg
property: AUC(0-inf) (ng·h/mL)
Only the number, expressed in ng·h/mL, is required.

Exam item: // AUC(0-inf) lookup, key: `COc1ccc(CN2C3CC2CN(c2ccc(-c4cc(N5CC(C)(O)C5)cn5ncc(C#N)c45)cn2)C3)cn1`
Marked response: 48100

====

- experiment notes: Phase 1 trial: plasma pharmacokinetics
- Assay type: in vivo
- condition label: human, oral, single dose, read-out: Mean T1/2 across dose cohorts
property: half-life

Exam item: // half-life lookup, key: `COc1ccc(CN2C3CC2CN(c2ccc(-c4cc(N5CC(C)(O)C5)cn5ncc(C#N)c45)cn2)C3)cn1`
Marked response: 6.8 to 44.4 h

====

- experiment notes: Phase 1 trial: plasma pharmacokinetics
- Assay type: in vivo
- condition label: human, oral, 20 mg, Cycle 1 Day 28, 20 mg BID (n = 1), read-out: T1/2 mean (converted)
property: half-life (h)
Only the number, expressed in h, is required.

Exam item: // half-life lookup, key: COc1ccc(CN2C3CC2CN(c2ccc(-c4cc(N5CC(C)(O)C5)cn5ncc(C#N)c45)cn2)C3)cn1 [SY-5007]
Marked response: 7.3

====

- experiment notes: Phase 1 trial: plasma pharmacokinetics
- Type: in vivo
- condition label: human, oral, 20 mg, Cycle 1 Day 28, 20 mg QD (n = 1), read-out: AUC0–12 h mean
property: AUC(0-t) (ng·h/mL)
Only the number, expressed in ng·h/mL, is required.

Exam item: // AUC(0-t) lookup, key: COc1ccc(CN2C3CC2CN(c2ccc(-c4cc(N5CC(C)(O)C5)cn5ncc(C#N)c45)cn2)C3)cn1 [SY-5007]
Marked response: 2200

====

- experiment notes: Phase 1 trial: plasma pharmacokinetics
- Format: in vivo
- condition label: human, oral, 200 mg, Cycle 1 Day 1, 200 mg BID (n = 9), read-out: Tmax mean
property: Tmax (h)
Only the number, expressed in h, is required.

Exam item: // Tmax lookup, key: `COc1ccc(CN2C3CC2CN(c2ccc(-c4cc(N5CC(C)(O)C5)cn5ncc(C#N)c45)cn2)C3)cn1`
Marked response: 1

====

- experiment notes: Phase 1 trial: plasma pharmacokinetics
- Type: in vivo
- condition label: human, oral, 200 mg, Cycle 1 Day 1, 200 mg BID (n = 9), read-out: T1/2 mean (converted)
- Excerpt: Serial plasma samples were also collected in each patient after the first dose and during multiple-dose administration on Cycle 1 Day 28.
property: half-life

Exam item: // half-life lookup, key: `COc1ccc(CN2C3CC2CN(c2ccc(-c4cc(N5CC(C)(O)C5)cn5ncc(C#N)c45)cn2)C3)cn1`
Marked response: 23.9 h

====

- experiment notes: Pharmacokinetics in rats
- Type: in vivo, SD rats
- condition label: both sexes, SD, rat, plasma, po; gavage 50 mg/kg
property: AUC(0-inf) (µg·h/mL)
Only the number, expressed in µg·h/mL, is required.

Exam item: // AUC(0-inf) lookup, key: COc1ccc(CN2C3CC2CN(c2ccc(-c4cc(N5CC(C)(O)C5)cn5ncc(C#N)c45)cn2)C3)cn1 [SY-5007]
Marked response: 112

====

- experiment notes: Phase 1 trial: plasma pharmacokinetics
- Assay type: in vivo
- condition label: human, 20 mg, Cycle 1 Day 1, 20 mg BID (n = 1), read-out: AUCINF_obs mean
property: AUC(0-inf) (ng·h/mL)
Only the number, expressed in ng·h/mL, is required.

Exam item: // AUC(0-inf) lookup, key: `COc1ccc(CN2C3CC2CN(c2ccc(-c4cc(N5CC(C)(O)C5)cn5ncc(C#N)c45)cn2)C3)cn1`
Marked response: 3830

====

- experiment notes: Phase 1 trial: plasma pharmacokinetics
- Format: in vivo
- condition label: human, oral, 20 mg, Cycle 1 Day 28, 20 mg QD (n = 1), read-out: MRTINF_obs mean
property: MRT inf (h)
Only the number, expressed in h, is required.

Exam item: // MRT inf lookup, key: `COc1ccc(CN2C3CC2CN(c2ccc(-c4cc(N5CC(C)(O)C5)cn5ncc(C#N)c45)cn2)C3)cn1`
Marked response: 7.7
